// values below are reported LogIC50
molecular target: T1, rat µ opioid receptor (rat, UniProt P33535 1-398); assay: competition vs [3H]DAMGO, rMOR cell membranes
T1 construct: whole, on cells; membrane preparations of the transfected cells were used; also called rMOR; MOR
T1 sequence (P33535 whole entry): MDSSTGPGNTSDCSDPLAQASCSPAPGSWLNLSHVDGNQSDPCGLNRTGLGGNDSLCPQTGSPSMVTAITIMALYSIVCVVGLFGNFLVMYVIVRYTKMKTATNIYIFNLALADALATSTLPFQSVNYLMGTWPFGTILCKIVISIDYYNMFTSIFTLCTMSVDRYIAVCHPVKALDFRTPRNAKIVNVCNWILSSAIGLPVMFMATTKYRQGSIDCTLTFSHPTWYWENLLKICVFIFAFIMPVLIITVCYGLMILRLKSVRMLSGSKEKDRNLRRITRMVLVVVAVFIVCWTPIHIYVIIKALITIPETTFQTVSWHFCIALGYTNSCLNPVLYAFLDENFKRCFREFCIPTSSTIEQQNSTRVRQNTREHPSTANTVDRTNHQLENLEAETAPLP
Bridge positions count the residues as written; N and C are the ends. Square brackets hold non-standard residues; d marks the D form. Ends that are not written are not given here. * marks the point of attachment. NH(3,5-(CF3)2-benzyl) = FC(F)(F)c1cc(CN*)cc(C(F)(F)F)c1; Nle = CCCC[C@H](N)C(=O)O

# Binder, LogIC50
rows = [
    ("Y[dC]GF[Nle]PCW-{NH(3,5-(CF3)2-benzyl)} (disulfide 2-7, cyclic; also called TY035; [D-Cys2, Cys7]TY027) [Tyr[DCysGlyPheNleProCys]TrpNHBn(CF3)2]", -6.8),
    ("Y[dC]GF[dC]PLW-{NH(3,5-(CF3)2-benzyl)} (disulfide 2-5, cyclic; also called TY037; [D-Cys2, D-Cys5]TY027) [Tyr[DCysGlyPheDCys]ProLeuTrpNHBn(CF3)2]", -6.9),
    ("Y[dC]GF[Nle]P[dC]W-{NH(3,5-(CF3)2-benzyl)} (disulfide 2-7, cyclic; also called TY038; [D-Cys2, D-Cys7]TY027) [Tyr[DCysGlyPheNleProDCys]TrpNHBn(CF3)2]", -8.8),
    ("Y[dC]GFCPLW-{NH(3,5-(CF3)2-benzyl)} (disulfide 2-5, cyclic; also called TY039; [D-Cys2, Cys5]TY027) [Tyr[DCysGlyPheCys]ProLeuTrpNHBn(CF3)2]", -6.4),
]
